Task for the reader: assign each of the following compounds its reported remaining activity at 100 µM.
Assayed System: Myc/Max binding to DNA (Homo sapiens)
Experiment Description: Electrophoretic mobility shift assay (EMSA) of Myc/Max binding to DNA
Type: biochemical
Condition Set: EMSA, 100 uM test compound; read-out: Bound DNA (%) (100uM)
Your answer is read as %, so omit the unit and give the number.

## Input Returns the measured remaining activity at 100 µM for the input compound. Input: Cn1nc(C(F)(F)F)c(-c2cccnc2)c1-c1ccc(OCc2ccc(Cl)cc2)cc1O
## Output 98

## Input Same thing, different compound: Cn1cc(C(F)(F)F)c(-c2ccc(OCc3ccc(Cl)cc3)cc2F)n1
## Output 101

## Input Then what about the compound Cn1nc(-c2ccc(OCc3ccc(Cl)cc3)cc2O)c(-c2cccnc2)c1C(F)(F)F ?
## Output 132

## Input What about this compound? c1ccc(COc2ccccc2-c2nn[nH]c2-c2ccccc2)cc1
## Output 104

## Input Let us now turn to Oc1cc(OCc2ccc(Cl)cc2)ccc1-c1n[nH]c(C(F)(F)F)c1Oc1ccccc1Cl
## Output 1

## Input Same question for Oc1cc(OCc2ccc(Cl)cc2)ccc1-c1n[nH]c(C(F)(F)F)c1-c1ccc(C(F)(F)F)c(Cl)c1 please.
## Output 89

## Input Follow-up entry: Cn1cc(-c2c[nH]nc2-c2ccc(OCc3ccc(Cl)cc3)cc2O)cn1
## Output 87

## Input Repeat for the following compound: COc1cccc(-c2c[nH]nc2-c2ccc(OCc3ccc(Cl)cc3)cc2O)c1
## Output 92

## Input Thanks! And Nc1nc(-c2ccc(OCc3ccc(Cl)cc3)cc2O)cc(C(F)(F)F)n1 ?
## Output 94

====

Assayed System: Myc/Max binding to DNA (Homo sapiens, UniProt P01106)
Sequence (P01106 whole entry): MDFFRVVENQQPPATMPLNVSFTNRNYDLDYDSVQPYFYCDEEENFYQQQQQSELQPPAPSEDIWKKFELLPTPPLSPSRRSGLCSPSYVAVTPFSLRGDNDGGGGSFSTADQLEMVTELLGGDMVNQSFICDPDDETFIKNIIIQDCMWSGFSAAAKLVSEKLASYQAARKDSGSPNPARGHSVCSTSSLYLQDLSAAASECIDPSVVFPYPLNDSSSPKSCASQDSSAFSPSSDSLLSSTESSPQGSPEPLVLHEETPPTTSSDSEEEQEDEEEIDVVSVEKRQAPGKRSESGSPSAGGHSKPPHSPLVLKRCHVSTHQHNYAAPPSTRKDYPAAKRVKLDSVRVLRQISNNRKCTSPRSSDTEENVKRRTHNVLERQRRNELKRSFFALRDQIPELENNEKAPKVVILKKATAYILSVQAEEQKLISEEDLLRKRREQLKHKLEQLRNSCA
Experiment Description: Electrophoretic mobility shift assay (EMSA) of Myc/Max binding to DNA
Assay type: biochemical
Condition Set: EMSA, 50 uM test compound; read-out: Bound DNA (%) (50uM)
Kindly apply the following: True if remaining activity at 50 µM is less than 90%, False in every other case.

## Input Item Cn1nc(C(F)(F)F)cc1-c1cnc(OCc2ccc(Cl)cc2)cn1 [compound 0200692] : remaining activity at 50 µM beneath 90%, strictly?
## Output False

## Input Then this molecule: NC(=O)c1ccc(Nc2ccc(-c3cc(C(F)(F)F)[nH]n3)c(O)c2)cc1 [compound 0200563]
## Output False

## Input Then what about the molecule N#Cc1cccc(-c2c(C(F)(F)F)n[nH]c2-c2cc(OCc3ccc(Cl)cc3)ccc2O)c1 [compound 0200571] ?
## Output True

## Input Another molecule to look at: Oc1cc(Nc2ccc(F)c(F)c2)ccc1-c1cc(C(F)(F)F)[nH]n1 [compound 0200559]
## Output True

## Input Cool, now Oc1ccc(-c2n[nH]c(C(F)(F)F)c2-c2cc(C(F)(F)F)cc(C(F)(F)F)c2)c(O)c1 [compound 0200495]
## Output True

## Input Try CN1CCN(c2ccc(-c3cc(C(F)(F)F)n(C)n3)c(O)c2)CC1 [compound 0200568] next.
## Output False

## Input Please do the same for Oc1cc(OCc2ccc(Cl)cc2)ccc1-c1cc(C(F)(F)F)nc(-c2cccc(C(F)(F)F)c2)n1 [compound 0200500] as well.
## Output False

## Input Would you mind doing Oc1cc(OCc2ccc(Cl)cc2)ccc1-c1n[nH]c(C(F)(F)F)c1-c1cccc(C(F)(F)F)c1 [compound 0200730] as well?
## Output False

## Input Note, next up: Nc1nc(-c2ccc(OCc3ccc(Cl)cc3)cc2O)cc(C(F)(F)F)n1 [compound 0200502]
## Output True

## Input // next record Cn1nc(-c2ccc(Nc3ccccn3)cc2O)cc1C(F)(F)F [compound 0200566]
## Output False

## Input Same thing, different molecule: N#Cc1cccc(-c2c(-c3ccc(OCc4ccc(Cl)cc4)cc3O)n[nH]c2C(N)=O)c1 [compound 0200557]
## Output True

## Input Request: Cn1nc(-c2ccc(Nc3ccc4c(c3)OCO4)cc2O)cc1C(F)(F)F [compound 0200562]
## Output False

## Input // next record CCc1ccc(Oc2c(-c3ccccc3O)n[nH]c2C(F)(F)F)cc1 [compound 0200683]
## Output True

## Input And for Oc1cc(Nc2ccc(Cl)c(Cl)c2)ccc1-c1cc(C(F)(F)F)[nH]n1 [compound 0200721] ?
## Output True

## Input Param item: Oc1cccc(OCc2ccc(Cl)cc2)c1-c1cc(C(F)(F)F)n[nH]1 [compound 0200570]
## Output True

## Input Now the molecule CCc1ccc(Oc2c(-c3ccc(O)cc3O)nn(C)c2C(F)(F)F)cc1 [compound 0200682]
## Output False

## Input Next: Oc1cc(OCc2ccc(Cl)cc2)ccc1-c1cc(C(F)(F)F)n(Cc2ccccc2)n1 [compound 0200499]
## Output False

## Input Can you handle Cn1nc(C(F)(F)F)cc1-c1ccc(O)cn1 [compound 0200687] next?
## Output False

## Input // next record Cn1nc(-c2ccc(OCc3ccc(Cl)cc3)cc2O)c(-c2cccc(C#N)c2)c1C(N)=O [compound 0200558]
## Output True
